Tested on: UACC-62
test.protocol: NCI tumour cell line growth inhibition, 48 h
Where a name gives a salt, the structure may show the parent alone. Active and inactive are the calls of the source. No stated cut-off is given here; in the data, active = GI50 up to about 1.1 µM and inactive = higher.
Labels: active, inactive

{"columns": ["compound", "category"],
 "data": [
  ["O=[N+]([O-])c1ccc(/C=N\\N=c2/ccc([N+](=O)[O-])c[nH]2)cc1", "inactive"],
  ["COc1cc([C@H]2Oc3cc(O)c4c(=O)cc(-c5ccccc5)oc4c3O[C@@H]2CO)ccc1O", "inactive"],
  ["O=C1C=C(NCCc2cc(Br)c(O)c(Br)c2)C(=O)c2[nH]cnc21", "inactive"],
  ["COc1ccc(-c2cc(-c3ccncc3)nc(N)c2-c2ccc(F)cc2)cc1", "inactive"],
  ["OC1CCC(COC(c2ccccc2)(c2ccccc2)c2ccccc2)O1 (stereo not given)", "inactive"],
  ["Nc1nc(O)nc2c1ncn2C1OC(CO)C(O)C1O (stereo not given)", "inactive"],
  ["COC(=O)c1cc(NC(=O)c2cc(NC(=O)c3cc([N+](=O)[O-])cn3C)cn2C)cn1C", "inactive"],
  ["Oc1ccc(Cl)cc1Cc1cc(Cl)cc(Cc2cc(Cl)ccc2O)c1O", "inactive"],
  ["c1ccc([C@H]2CN3CCSC3=N2)cc1 [LEVAMISOLE HYDROCHLORIDE]", "inactive"],
  ["COc1ccc(C2C(Cl)C(=O)N2NC(=O)c2ccccc2O)cc1OC (stereo not given)", "inactive"],
  ["[N-]=[N+]=Nc1c(Br)c(=O)[nH]c(=O)n1COCCO", "inactive"],
  ["Cc1sc2nc(-c3ccc([N+](=O)[O-])cc3)c(/C=N/N=C(N)N)n2c1C", "inactive"],
  ["C=CCC(NCc1ccccc1)[C@H](OCc1ccccc1)[C@@H]1COC(C)(C)O1 (stereo not given in full)", "inactive"],
  ["Cc1nc(O)nc2nc3ccc(Cl)cc3c(NCCNCCO)c12", "inactive"],
  ["CCOC(=O)C(C)(C)Oc1ccc2c(=O)cc(-c3ccccc3)oc2c1", "inactive"],
  ["c1ccc(C[P+]2(c3ccccc3)c3ccccc3-c3ccccc32)cc1", "inactive"],
  ["Cc1cc(-c2c(Br)cc(C(=O)O)n2C)on1", "inactive"],
  ["Cc1ccc(-c2nc3ccccc3c(=O)n2NC2OC(CO)C(O)C(O)C2O)cc1 (stereo not given)", "inactive"],
  ["CCOC(=O)Oc1cc2c(ccn2C)c2c1c1ccccc1n2C(=O)OCC", "inactive"],
  ["CSC(SC)=C(C(=O)c1ccc(Cl)cc1)n1c(=O)sc2cc(Br)ccc21", "inactive"],
  ["CCC(C)C(=O)OC1C(=O)OC2CC3C(C)=CC(=O)C(O)C3(C)C3C4(O)OCC23C1C(C)C4O (stereo not given)", "active"],
  ["S=C1SC(=N\\c2ccccc2)/C(=N/c2ccccc2)N1c1ccc2ccccc2c1", "inactive"],
  ["C[C@@H]1C[C@@H](O)[C@@]2(O)C13CC(=O)OC(C3)[C@@H](C)[C@@]2(C)CO (stereo not given in full)", "inactive"],
  ["COc1ccc2nc3cc(Cl)ccc3c(Sc3ccc(NC(C)=O)cc3)c2c1", "inactive"],
  ["CC1CC2C3CC(F)C4=CC(=O)C=CC4(C)C3(F)C(O)CC2(C)C1(O)C(=O)CO (stereo not given)", "inactive"],
  ["Cc1c(/N=C/C=C/c2ccccc2)c(=O)n(-c2ccccc2)n1C", "inactive"],
  ["NC(CCC(=O)NC(CSSCCCCS(=O)O)C(=O)NCC(=O)O)C(=O)O (stereo not given)", "inactive"],
  ["CCOC(=O)[C@@H]1C2C(=C[C@H]3[C@H]1C(=O)N1CCCC[C@H]31)CCCN2C(=O)OCc1ccccc1 (stereo not given in full)", "inactive"],
  ["CC1=NN(C(=O)c2ccc(Cl)cc2)C(=O)/C1=C/c1ccccc1O", "inactive"],
  ["C[C@]12CCC(O)CC1=CC[C@@H]1[C@@H]2CC[C@]2(C)C(=O)[C@H](n3ccnc3)C[C@@H]12 (stereo not given in full)", "inactive"],
  ["CN(C)S(=O)(=O)c1ccc(Nc2ccc(O)c3c2C(=O)c2c([N+](=O)[O-])ccc(O)c2C3=O)cc1", "inactive"],
  ["CCN(CC)C(=S)S [DITIOCARB SODIUM]", "active"],
  ["O=[N+]([O-])c1nc(-c2ccccn2)[nH]c1[N+](=O)[O-]", "inactive"],
  ["S=C(Nc1ccc(Cl)cc1)SC1CCCCC1", "inactive"],
  ["CC1CC(OP(=O)(OCc2ccccc2)OCc2ccccc2)[C@@H](OCc2ccccc2)C(OCc2ccccc2)C1OCc1ccccc1 (stereo not given in full)", "inactive"],
  ["CCOc1ccccc1NC(=O)C(=O)CC(=O)c1c(C)[n+]([O-])c2ccccc2[n+]1[O-]", "inactive"],
  ["Cc1occc1C(=S)Nc1ccc(Cl)c(C(=O)OC(C)C2CC2)c1 (stereo not given)", "inactive"],
  ["Cc1cc(C)[n+](CCOc2ccc(/C(=C(/Cl)c3ccccc3)c3ccccc3)cc2)c(C)c1.[O-][Cl+3]([O-])([O-])[O-]", "active"],
  ["COc1ccc(-c2nc3ccc(C)cc3o2)c(OC)c1", "inactive"],
  ["NS(=O)(=O)c1c(O)c2ccccc2oc1=O", "inactive"]
]}
